Reference source: paper PMC4980831

Target: PDE5 (Homo sapiens, UniProt O76074)
pIC50: −log10 of the molar value.
parameter measured: pIC50

Past entries and their recorded results:
cpd smiles: CCN1C(=O)[C@@H]2Cc3c([nH]c4ccccc34)[C@@H](c3cc(OC)ccc3OC)N2C1=O
pIC50: 4.06
//
cpd smiles: COC(=O)[C@@H]1Cc2c([nH]c3ccccc23)[C@@H](c2cc(OC)ccc2OC)N1
pIC50: 4.76
//
cpd smiles: COC(=O)[C@H]1Cc2c([nH]c3ccccc23)[C@@H](c2cc(OC)ccc2OC)N1
pIC50: 5.41

P = CCN1C(=O)[C@@H]2Cc3c([nH]c4ccccc34)[C@@H](c3cc(OC)ccc3OC)N2C1=S
Q = CCN1C(=O)[C@H]2Cc3c([nH]c4ccccc34)[C@@H](c3cc(OC)ccc3OC)N2C1=O
Field: entry with larger pIC50 (options P / Q ). # reply format: chosen label
Q
